Below, each entry is listed with its recorded inhibition.
Molecular target: 5-hydroxytryptamine receptor 2A (Homo sapiens)
Settings: Compound concentration 10 µM
Description: PDSP Primary Binding target: HTR2A - Compounds are tested at 10 uM concentration, plate are incubated at room temperature in the dark for 90 minutes. Reaction are stopped by vacuum filtration onto 0.3% polyethyleneimine soaked filter mats using Filtermate harvester. Scintilation cocktail is then melted onto microwave-dried filters on a hot plate and the radio activity is counted in Microbia counter.
Report the figure in % without appending any unit label.

O=c1ccn([C@@H]2O[C@H](COP(=O)(O)OP(=O)(O)OP(=O)(O)O)[C@@H](O)[C@H]2O)c(=O)[nH]1: 46.4
COc1ccc(S(=O)(=O)N2c3ccc(Cl)cc3[C@](O)(c3ccccc3Cl)[C@@H]2C(=O)N2CCC[C@H]2C(N)=O)cc1OC: -2.13
O=C(Cc1ccccc1)Nc1nc2ccc(Cl)cc2c2nc(-c3ccco3)nn12: 16.8
CN[C@@H]1CCc2[nH]c3ccc(C(N)=O)cc3c2C1: 16.6
CC(C)(N)C(=O)N[C@H](COCc1ccccc1)C(=O)N1CCC2(CC1)CN(S(C)(=O)=O)c1ccccc12: 6.83
O=C(O)CC/C=C\C[C@@H]1CO[C@H](c2ccccc2Cl)O[C@@H]1c1ccccc1O: 3.61
COC1CCN(c2cccc(-c3cc(NC(C)=O)nc(-n4nc(C)cc4C)n3)n2)CC1: 1.6
O=C(O)CC1CCC2(CC1)CCN(c1cc(OC(F)(F)F)ccc1Cl)CC2: 26.1

Continue with the molecule presented below.
Name the recorded inhibition for "Cc1cn2cc(CC(=O)N3CCC4(CC3)CN(Cc3ccc(-n5nccn5)cc3Cl)C4)nc2s1" .
-2.36
